Assay: Rat 28-day GLP repeat dose PO study (toxicokinetics)
Format: in vivo
Settings: male, rat, in vivo, po, 2000 mg/kg, Day 14, M, 2000 mg/kg PO; read-out: tmax
Counter-ions that a name gives are not always drawn.
assay.metric: Tmax (h)
Supply the numeric figure in h, leaving out any unit text.

Requested read-out: Tmax. Entry: CC1(C)SC(Nc2ccccc2O)=N[C@@H]1C(=O)O [Compound 1, mono-hydrochloride]
1

---

Assay: Rat 28-day GLP repeat dose PO study (toxicokinetics)
Assay type: in vivo
Details: female, rat, in vivo, po, 2000 mg/kg, Day 28, F, 2000 mg/kg PO; read-out: V/F (Vss/F)
Structures can show the parent of a compound that is named as a salt.
assay.metric: Vd/F (L/kg)
Supply the numeric figure in L/kg, leaving out any unit text.

Requested read-out: Vd/F. Entry: CC1(C)SC(Nc2ccccc2O)=N[C@@H]1C(=O)O [Compound 1, mono-hydrochloride]
8.7

---

Assay: Rat 28-day GLP repeat dose PO study (toxicokinetics)
Type: in vivo
Conditions: male, rat, in vivo, po, 2000 mg/kg, Day 1, M, 2000 mg/kg PO; read-out: t1/2 (converted)
Where a name gives a salt, the structure may show the parent alone.
assay.metric: half-life

Requested read-out: half-life. Entry: CC1(C)SC(Nc2ccccc2O)=N[C@@H]1C(=O)O [Compound 1, mono-hydrochloride]
2.81 h

---

Experiment: Dog single oral dose MTD study
Type: in vivo
Details: female, dog, plasma; 250 mg/kg PO (Dose 1; Day 1), 1 h, F, N = 2; read-out: Average Compound 1 Concentration in dog plasma
Counter-ions that a name gives are not always drawn.
assay.metric: concentration at 1 h (µg/mL)
Supply the numeric figure in µg/mL, leaving out any unit text.

Requested read-out: concentration at 1 h. Entry: CC1(C)SC(Nc2ccccc2O)=N[C@@H]1C(=O)O [Compound 1, mono-hydrochloride]
54

---

Assay: Rat 28-day GLP repeat dose PO study (toxicokinetics)
Assay type: in vivo
Settings: female, rat, in vivo, po, 1000 mg/kg, Day 1, F, 1000 mg/kg PO; read-out: Cmax
Where a name gives a salt, the structure may show the parent alone.
assay.metric: Cmax (µg/mL)
Supply the numeric figure in µg/mL, leaving out any unit text.

Requested read-out: Cmax. Entry: CC1(C)SC(Nc2ccccc2O)=N[C@@H]1C(=O)O [Compound 1, mono-hydrochloride]
108

---

Assay: Dog 7-day repeat dose PO study
Assay type: in vivo
Conditions: male, plasma, 350 mg/kg, Day 7, 350 mg/kg PO, M, N = 1
Where a name gives a salt, the structure may show the parent alone.
assay.metric: Tmax (h)
Supply the numeric figure in h, leaving out any unit text.

Requested read-out: Tmax. Entry: CC1(C)SC(Nc2ccccc2O)=N[C@@H]1C(=O)O [Compound 1, mono-hydrochloride]
1

---

Assay: Rat 28-day GLP repeat dose PO study (toxicokinetics)
Format: in vivo
Conditions: female, rat, in vivo, po, 1000 mg/kg, Day 14, F, 1000 mg/kg PO
Structures can show the parent of a compound that is named as a salt.
assay.metric: AUC(0-inf) (µg·h/mL)
Supply the numeric figure in µg·h/mL, leaving out any unit text.

Requested read-out: AUC(0-inf). Entry: CC1(C)SC(Nc2ccccc2O)=N[C@@H]1C(=O)O [Compound 1, mono-hydrochloride]
437

---

Experiment: in vivo
Settings: male, Sprague-Dawley (CD IGS, Crl:CD(SD)), rat, po, 100 mg/kg
Where a name gives a salt, the structure may show the parent alone.
assay.metric: Tmax (h)
Supply the numeric figure in h, leaving out any unit text.

Requested read-out: Tmax. Entry: CC1(C)SC(Nc2ccccc2O)=N[C@@H]1C(=O)O [Compound 1, mono-hydrochloride]
1
